Molecular target: T1, ZIKV (prM80E) with a C-terminal myc-myc-hexahistidine tag (Zika virus, UniProt A0A024B7W1 104-694)
T1 construct: also called ZIKV (prM80E)-mmH; ZIKV-mmH
Assay: SPR, mAb captured, 37C, pH 5.0 chase
Consider the following binders; for each one, report its t½.
Answers are plain numbers, in s.

Consider the reported t½ for these binders:
binder="H4H25619P (antibody, V domains shown) VH: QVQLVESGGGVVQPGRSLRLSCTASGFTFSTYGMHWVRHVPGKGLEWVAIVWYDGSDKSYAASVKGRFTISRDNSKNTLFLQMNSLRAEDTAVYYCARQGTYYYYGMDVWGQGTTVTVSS VL: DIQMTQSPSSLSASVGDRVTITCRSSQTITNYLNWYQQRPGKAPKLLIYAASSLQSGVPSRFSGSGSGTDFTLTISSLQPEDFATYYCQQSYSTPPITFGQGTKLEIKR" unittag=s measurednumber=1270
binder="H4H25566P (antibody, V domains shown) VH: QVQLQESGPGLVKPSQTLSLTCTVSGGSISSGGYYWSWIRQHPGKGLEWIGYIYYSGSTYYNPSLKSRITISIDTSKNQFSLKLTSVTAADTAVYYCARGQQLLSFDYWGQGTLVTVSS VL: DIQMTQSPSSVSASVGDRVTITCRASQGISRWLAWYQLKPGKPPTPLIYAASSLQSGAPSRFSGRGSGTDFTLTISSLQPEDFATYYCQQANSFPYTFGQGTKLEIK" unittag=s measurednumber=1.8

# context switch: different binder, same t½
IN: Need t½ of H4H25598P (antibody, V domains shown) VH: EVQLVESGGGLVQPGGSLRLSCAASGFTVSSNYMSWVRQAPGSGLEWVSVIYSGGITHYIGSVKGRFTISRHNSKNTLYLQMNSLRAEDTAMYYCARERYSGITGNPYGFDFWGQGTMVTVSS VL: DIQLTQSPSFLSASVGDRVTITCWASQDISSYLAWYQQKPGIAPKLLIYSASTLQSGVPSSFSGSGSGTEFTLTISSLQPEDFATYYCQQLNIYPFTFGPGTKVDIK , thanks.
OUT: 6
